System: CASKI
test protocol: Primary qHTS to identify gynecologic anti-cancer compounds using libraries of approved drugs and bioactive compounds (AID 1345084); also: % is scaled to controls: 0 for no effect and ±100 for the full control effect; nearly all actives have a fitted effect of over 55% in size
test parameters: Gynecologic cancer cell panel viability, ATPlite luminescence, 48 h; series mostly up to 57.5 µM
Records with an inconclusive call do not appear. The source made the active and inactive calls. Calls follow the shape of the dose curve; as a rule, active = well fitted cell-killing curve with a large enough effect; inconclusive = small, poorly fitted or top-dose-only effect, or effect the other way; inactive = flat fitted curve, though single readings scatter.

compound: O=C(O)c1ccc(S(=O)(=O)N(Cc2ccc(OC(F)(F)F)cc2)c2ncc(C(F)(F)F)cc2Cl)cc1
activity change, negative = cytotoxicity: inactive
//
compound: CC(=O)O[C@H]1CC(C)(C)CC2[C@]13CO[C@@]21CCC2[C@@]4(C)CC[C@H](O[C@@H]5OC[C@H](O[C@@H]6O[C@H](CO)[C@@H](O)[C@H](O)[C@H]6O[C@@H]6OC[C@@H](O[C@@H]7O[C@H](CO)[C@@H](O)[C@H](O)[C@H]7O)[C@H](O)[C@H]6O)[C@H](O)[C@H]5O[C@@H]5O[C@H](CO)[C@@H](O)[C@H](O)[C@H]5O)[C@@](C)(CO)C4CC[C@@]2(C)[C@]1(C)C[C@H]3O (some centres undefined)
activity change, negative = cytotoxicity: -12% [at 6.55 µM] (inactive)
//
compound: COc1cccc(NCCC2(c3ccccc3)CC(C)(C)OC(C)(C)C2)c1
activity change, negative = cytotoxicity: inactive
//
compound: CC1OC(OC2C(O)COC(O[C@@H]3[C@@H](O)[C@@H](O)[C@H](OC4C(OC(=O)[C@]56CCC(C)(C)CC5C5=CCC7[C@@]8(C)C[C@H](O)[C@H](OC9OC(CO)C(O)C(O)C9O)[C@@](C)(CO)C8[C@H](O)C[C@@]7(C)[C@]5(C)CC6)OCC(O)C4O)O[C@H]3C)C2O)C(O)C(O)C1O (some centres undefined)
activity change, negative = cytotoxicity: 20% [at 6.55 µM] (inactive)
